Overview of recorded pEC50 for various molecules
- target-or-system: Gamma-aminobutyric acid receptor subunit alpha-6/beta-3/gamma-2 (Rattus norvegicus, UniProt P18508+P30191+P63079)
- Sequence (P18508 whole entry): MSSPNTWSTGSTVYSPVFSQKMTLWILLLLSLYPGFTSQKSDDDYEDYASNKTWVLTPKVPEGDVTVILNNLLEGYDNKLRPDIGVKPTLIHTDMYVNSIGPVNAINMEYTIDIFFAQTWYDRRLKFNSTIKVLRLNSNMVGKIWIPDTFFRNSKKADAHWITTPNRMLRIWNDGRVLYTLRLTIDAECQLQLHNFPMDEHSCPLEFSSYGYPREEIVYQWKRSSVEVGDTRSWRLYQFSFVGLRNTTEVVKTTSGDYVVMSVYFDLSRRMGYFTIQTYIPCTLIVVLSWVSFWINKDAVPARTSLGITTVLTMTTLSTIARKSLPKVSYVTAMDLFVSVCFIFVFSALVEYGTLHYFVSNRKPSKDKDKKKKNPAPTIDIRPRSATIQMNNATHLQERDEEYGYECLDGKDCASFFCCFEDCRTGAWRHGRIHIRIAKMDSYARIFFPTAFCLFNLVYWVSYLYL
- Sequence (P30191 whole entry): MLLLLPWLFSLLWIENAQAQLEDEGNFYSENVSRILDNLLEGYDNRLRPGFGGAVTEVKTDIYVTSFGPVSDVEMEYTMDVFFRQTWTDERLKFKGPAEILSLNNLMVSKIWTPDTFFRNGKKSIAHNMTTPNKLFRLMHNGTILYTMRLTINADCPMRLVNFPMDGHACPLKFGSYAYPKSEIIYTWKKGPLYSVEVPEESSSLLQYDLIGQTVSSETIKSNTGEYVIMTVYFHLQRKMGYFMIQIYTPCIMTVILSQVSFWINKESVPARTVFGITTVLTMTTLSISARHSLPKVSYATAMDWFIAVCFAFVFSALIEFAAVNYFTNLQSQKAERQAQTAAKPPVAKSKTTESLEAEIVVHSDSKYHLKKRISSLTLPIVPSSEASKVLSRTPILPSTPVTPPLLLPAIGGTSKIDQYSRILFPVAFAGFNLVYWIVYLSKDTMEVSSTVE
- Sequence (P63079 whole entry): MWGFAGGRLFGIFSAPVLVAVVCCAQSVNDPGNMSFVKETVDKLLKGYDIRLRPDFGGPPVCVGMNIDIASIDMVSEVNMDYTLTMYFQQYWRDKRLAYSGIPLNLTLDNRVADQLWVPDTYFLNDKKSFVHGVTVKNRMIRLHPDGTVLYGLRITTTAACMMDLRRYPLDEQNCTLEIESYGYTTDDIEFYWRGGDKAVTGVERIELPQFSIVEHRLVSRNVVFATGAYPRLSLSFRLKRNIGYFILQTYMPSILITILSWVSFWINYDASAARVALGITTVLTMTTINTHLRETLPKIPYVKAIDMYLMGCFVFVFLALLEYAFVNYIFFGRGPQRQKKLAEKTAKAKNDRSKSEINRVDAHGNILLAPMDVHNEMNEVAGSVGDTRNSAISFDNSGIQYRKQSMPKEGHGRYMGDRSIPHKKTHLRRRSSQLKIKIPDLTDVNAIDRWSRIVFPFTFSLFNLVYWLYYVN
- assay-notes: Positive allosteric modulation of rat recombinant GABAA alpha6beta3alpha6-gamma2beta3 receptor expressed in Xenopus laevis oocytes assessed as increase in GABA-induced current amplitude at -80 mV holding potential under more potent phase in presence of GABA EC1 to 1.5 by two-electrode voltage-clamp assay
- Format: cell-based, Oocyte
Just the number, please; pEC50 means minus log10 of the concentration in mol/L.

Use the examples below as a reference point.
INSERT INTO assay_data (structure_notation, endpoint_value) VALUES
  ('COc1ccc(-n2nc3c4ccc(C(F)(F)F)cc4[nH]cc-3c2=O)cc1', 7.89),
  ('COc1ccc(-n2nc3c4ccc(Br)cc4[nH]cc-3c2=O)cc1', 8.05),
  ('COc1ccc(-n2nc3c4ccc(F)cc4[nH]cc-3c2=O)cc1', 7.55);

**Query** Recorded pEC50 for COc1ccc(-n2nc3c4ccc(OC)cc4[nH]cc-3c2=O)cc1 , please?
**Result** 8.10
